# measuredTarget: T1, QP100 (cyno SIRPα (G7PGS8) ECD(E29-R368)-flag-his) (cynomolgus)
# T1 construct: the construct carries flag and his tags; also called cynoSIRPα-flag-his; Cynomolgus SIRPα (QP100)
# T1 chain: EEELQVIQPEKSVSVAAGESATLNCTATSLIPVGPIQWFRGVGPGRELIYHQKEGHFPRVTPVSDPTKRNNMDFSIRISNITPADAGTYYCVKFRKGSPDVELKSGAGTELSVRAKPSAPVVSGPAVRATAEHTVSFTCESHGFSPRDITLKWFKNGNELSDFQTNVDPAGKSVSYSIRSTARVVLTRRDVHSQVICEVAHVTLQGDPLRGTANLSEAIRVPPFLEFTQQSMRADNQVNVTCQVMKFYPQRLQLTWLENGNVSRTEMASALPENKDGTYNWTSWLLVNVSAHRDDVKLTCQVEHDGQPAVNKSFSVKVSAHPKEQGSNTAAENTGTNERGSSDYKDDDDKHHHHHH
# methodDescription: binding ELISA, antigen coated
binders and their reported EC50
The reply should contain only the number, in ng/mL.

>  <binder>
QP2561589 (antibody, human IgG4, V domains shown, Human IgG4 heavy constant region and kappa CL) VH: QVQLVQSGAEVKKPGASVKVSCKASGYTFTNYWINWVRQAPGQGLEWIAMIDPSDSETHYNQIFKDRATLTTDTSTSTAYMELRSLRSDDTAVYYCAMDYGSLYAMDYWGRGTLVTVSS VL: DIVLTQSPDSLAVSLGERATINCRASKSVSSSGYNYIFWYQQKPGQPPKLLIYLASNLDSGVPDRFSGSGSGTDFTLTISSLQAEDVAVYYCQESWELPTFGQGTKLEIK

>  <measurementType>
EC50

>  <units>
ng/mL

>  <observedMeasurement>
2.01

$$$$

Here is another binder to look at.
Exam item: Requested read-out: EC50. Entry: QP2561581 (antibody, human IgG4, V domains shown, Human IgG4 heavy constant region and kappa CL) VH: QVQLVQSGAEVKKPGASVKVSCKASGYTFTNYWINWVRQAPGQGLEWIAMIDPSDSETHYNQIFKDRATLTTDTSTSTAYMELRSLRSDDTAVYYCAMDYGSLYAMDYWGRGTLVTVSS VL: DIVLTQSPDSLAVSLGERATINCRASKSVSSSGYNYIFWYQQKPGQPPKLLIYLASNLDPGVPDRFSGSGSGTDFTLTISSLQAEDVAVYYCQHSRELPTFGQGTKLEIK
Marked response: 0.758
